Below, each of the compounds is paired with its reported inhibition of growth at 30 µM value.
Tested on: MCF7
Experiment: Growth inhibition of human MCF7 cells at 30 uM after 72 hrs by MTT assay relative to control
Type: functional
Conditions: MCF7, 72 h, read-out: GI

• CCC[C@H]1[C@@H]2CCc3cc(OCc4cn(C[C@H]5O[C@H](OC)[C@H](OC(=O)c6ccccc6)[C@@H](OC(=O)c6ccccc6)[C@@H]5OC(=O)c5ccccc5)nn4)ccc3[C@H]2CC[C@]1(C)CO = < 20%
• CCC[C@H]1[C@@H]2CCc3cc(OCc4cn(C[C@H]5O[C@@H](OC)[C@H](OC(=O)c6ccccc6)[C@@H]5OC(=O)c5ccccc5)nn4)ccc3[C@H]2CC[C@]1(C)CO = < 20%

Any idea what its inhibition of growth at 30 µM is? The compound is CCC[C@H]1[C@@H]2CCc3cc(OCc4cn([C@@H]5O[C@H](COC(C)=O)[C@H](OC(C)=O)[C@H](OC(C)=O)[C@H]5OC(C)=O)nn4)ccc3[C@H]2CC[C@]1(C)CO
61.9%
